Target: T1, M11
T1 construct: also called PD1 mutant M11
Assay: scFv-phage ELISA
# OD490 annotations
PROPERTY_MEASURED: OD490

1. PD1-45F4 (antibody, V domains shown, scFv-phage in the screening ELISA; later whole IgG) VH: QMQLVESGGGLVQPGRSLRLSCAASGFTFDDYAMHWVRQAPGQGLEWVSGISWNSNNIKYADSVKGRFTISRDNSKNSLYLQMNSLRAEDTAVYYCARGALTPLDVWGQGTPVTVSS VL: SYELTQAPSLSVSPGQTANIICSGDNLRTKYVSWYQQKPGQSPLLVIYQDTRRPSGIPARFSGSNSGNTATLTISGTQTRDESTYYCMTWDVDTTSMIFGGGTKLTVL    0.3
2. PD1-49B9 (antibody, V domains shown, scFv-phage in the screening ELISA; later whole IgG) VH: QMQLVESGGGLVQPGRSLRLSCAASGFTFEDYAMHWVRQPPGKGLEWVSSISWNSHNIAYADSVKGRFTISRDNSKNSLYLQMNSLRAEDTAVYYCSTSGLGVHAWGQGTMVTVSS VL: QSALTQPPSASGSPGQSVTISCTGTSSDVGGYNYVSWYQQHPGKAPKLMIYEVSKRPSGVPDRFSGSKSGNTASLTVSGLQPEDEADYYCSSFARNSNYVFGTGTKVTVL    1.4
3. PD1-44B5 (antibody, V domains shown, scFv-phage in the screening ELISA; later whole IgG) VH: QVQLVESGGGVVQPGRSLRLSCAASGFTFSSYAMHWVRQAPGKGLEWVAVISYDGSNKYYADSVKGRFTISRDNSKNTLYLQMNSLRAEDTAVYYCARLMHTFSVQYFLDVWGQGTTVTVSS VL: QFVLTQSPSASGTPGQNIVISCSASTFNIGTTTVNWYQRLPGTAPKLLIYNYDQRPSGVPDRFSGSKSGTSASLAISGLQSEDEADYYCAAWDDSLNAWLFGGGTKLTVL    3.8
